This section presents IC50 values reported for Procathepsin L (Homo sapiens) in the literature.
The reply should be a number in µM, with the unit left off.

Lab note: record IC50 of O=C(/C=C/c1cccs1)c1ccc(O)cc1O tested on Procathepsin L (Homo sapiens).
Sequence (P07711 whole entry): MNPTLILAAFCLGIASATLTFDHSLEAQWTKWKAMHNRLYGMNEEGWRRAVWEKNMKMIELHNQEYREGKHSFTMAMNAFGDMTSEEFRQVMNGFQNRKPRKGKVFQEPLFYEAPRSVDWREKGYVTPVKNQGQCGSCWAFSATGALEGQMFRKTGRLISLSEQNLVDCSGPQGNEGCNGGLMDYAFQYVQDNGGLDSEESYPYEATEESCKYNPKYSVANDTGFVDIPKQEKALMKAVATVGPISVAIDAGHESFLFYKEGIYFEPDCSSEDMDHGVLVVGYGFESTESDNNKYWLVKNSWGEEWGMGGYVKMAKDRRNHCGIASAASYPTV
53

Lab note: record IC50 of N#CC1(NC(=O)[C@H](CS(=O)(=O)Cc2c(Cl)cccc2Cl)N[C@@H](c2ccc(F)cc2)C(F)(F)F)CC1 tested on Procathepsin L (Homo sapiens).
0.249

Lab note: record IC50 of CC(C)CC(C(=O)NCC#N)c1cccc(-c2ccncc2)c1 (stereo not given) tested on Procathepsin L (Homo sapiens).
5.78

Lab note: record IC50 of O=C(/C=C/c1ccc(O)cc1O)c1cccs1 tested on Procathepsin L (Homo sapiens).
2.8
